Origin of the recorded values: patent US20060121042A1

Target: T1, Human EphA4-Fc fusion protein (human, UniProt P54764 20-547)
T1 construct: not shown: Fc portion of a human IgG1
T1 sequence (P54764 20-547): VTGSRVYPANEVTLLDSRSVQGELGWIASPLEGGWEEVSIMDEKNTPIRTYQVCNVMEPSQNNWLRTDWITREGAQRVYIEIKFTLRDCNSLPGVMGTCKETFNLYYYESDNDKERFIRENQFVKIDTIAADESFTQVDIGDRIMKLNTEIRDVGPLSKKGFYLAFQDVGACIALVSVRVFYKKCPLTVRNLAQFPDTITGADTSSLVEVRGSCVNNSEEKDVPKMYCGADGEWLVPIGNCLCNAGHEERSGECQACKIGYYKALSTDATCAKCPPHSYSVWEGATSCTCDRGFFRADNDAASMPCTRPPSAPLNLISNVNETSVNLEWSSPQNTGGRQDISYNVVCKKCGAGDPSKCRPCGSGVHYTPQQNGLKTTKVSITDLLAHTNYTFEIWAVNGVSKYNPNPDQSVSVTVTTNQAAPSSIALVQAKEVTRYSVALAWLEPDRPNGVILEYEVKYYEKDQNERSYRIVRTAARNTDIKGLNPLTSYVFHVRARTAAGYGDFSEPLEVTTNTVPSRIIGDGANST
Experiment: BIAcore, IgG immobilized on the sensor chip, EphA4-Fc as analyte
parameter: pKd
// pKd is dimensionless: -log10 of concentration (M)

- binder: "1G11 IgG1 (affinity optimized combinatorial variant of mAb GEA44 in human IgG1 format) (antibody, V domains shown) VH: QVQLLQSGAEVKKPGASVKVPCKASGYTFTSRAMSWVRQAPGQGLEWMGWINTNTGNPTYAQGFTGRFVFSLDTSVSTAYLQISSLKAEDTAVYYCARVRFTVYGDGMDVWGQGTLVTVSS VL: EIVLTQSPATLSVSPGERATLSCRASQSVSSNLPWYQQKPGQAPRLLIYGASTRPTGIPDRFSASGSGTDFTLTISRVEPEDFAVYYCQQYGPSWTFGQGTKVEIK"
  pKd: 10.23
- binder: "1D11 IgG1 (affinity optimized combinatorial variant of mAb GEA44 in human IgG1 format) (antibody, V domains shown) VH: QVQLLQSGAEVKKPGASVKVPCKASGYTFTSRAMSWVRQAPGQGLEWMGWINTNTGNPTYAQGFTGRFVFSLDTSVSTAYLQISSLKAEDTAVYYCARVRTTVYGDNMDVWGQGTLVTVSS VL: EIVLTQSPATLSVSPGERATLSCRASQSVSSNLPWYQQKPGQAPRLLIYGASTRATGIPDRFSASGSGTDFTLTISRVEPEDFAVYYCQQYGPSWTFGQGTKVEIK"
  pKd: 9.75

Now let's try a different one.
Query :: Find the recorded pKd belonging to 1A4 IgG1 (affinity optimized combinatorial variant of mAb GEA44 in human IgG1 format) (antibody, V domains shown) VH: QVQLLQSGAEVKKPGASVKVPCKASGYTFTSRAMSWVRQAPGQGLEWMGWINTNTGNPTYAQGSTGRFVFSLDTSVSTAYLQISSLKAEDTAVYYCARVRFTVYGDGMDVWGQGTLVTVSS VL: EIVLTQSPATLSVSPGERATLSCRASQSVSSNPAWYQQKPGQAPRLLIYGASTRATGIPDRFSASGSGTDFTLTISRVEPEDFAVYYCQQYGPSWTFGQGTKVEIK and report it.
Result :: 10.43
